Assay: label from the status in PepcDB records
MEASUREMENT TYPE: protein production

MSLDKVLVGYWHNWKSTGKDGYKGGSSADFNLSSTQEGYNVINVSFMKTPEGQTLPTFKPYNKTDTEFRAEISKLNAEGKSVLIALGGADAHIELKKSQESDFVNEIIRLVDTYGFDGLDIDLEQAAIEAADNQTVIPSALKKVKDHYRKDGKNFMITMAPEFPYLTSSGKYAPYINNLDSYYDFINPQYYNQGGDGFWDSDLNMWISQSNDEKKEDFLYGLTQRLVTGTDGFIKIPASKFVIGLPSNNDAAATGYVKDPNAVKNALNRLKASGNEIKGLMTWSVNWDAGTNSNGEKYNNTFVNTYAPMLFNNEGHHHHHH = not failed
MHGKDPFSDFREFINTMESRVQELGKAYGVEHLAGPQGFAVRYLFENQDKEIFIKDIEKKLSISKSVASNLVKRMEKNGFVELVTSDKDKRYKYVHLTDLGKKKAQDVGHFREAIHGQLLDGISKEDAETAFRVFHQIRKNLEKNKELEHHHHHH = not failed
MDMKRRIHLELRNRTPAAVRELVLDNCKSNDGKIEGLTAEFVNLEFLSLINVGLISVSNLPKLPKLKKLELSENRIFGGLDMLAEKLPNLTHLNLSGNKLKDISTLEPLKKLECLKSLDLFNCEVTNLNDYRESVFKLLPQLTYLDGYDREDQEAPDSDAEVDGVDEEEEDEEGEDEEDEDDEDGEEEEFDEEDDEDEDVEGDEDDDEVSEEEEEFGLDEEDEDEDEDEEEEEGGKGEKRKRETDDEGEDD = not failed
